meta.source: paper PMC9145702

molecular target: SARS-CoV-2 3CL^pro main protease (Severe acute respiratory syndrome coronavirus 2, UniProt P0DTD1); assay: FRET-based assay of SARS-CoV-2 3CL^pro main protease inhibition activity; type: biochemical; settings: FRET assay, isolated SARS-CoV-2 3CL^pro, compound concentrations 200, 100, 50 and 25 μM
MEASURE: IC50 (µM)
Lab book: enter the figure in µM, no units written.

// returns reported IC50 for input O=C(NC12C=CC(c3ccccc3)(C3C(=O)N(NC(=O)c4ccccn4)C(=O)C31)C1C(=O)N(NC(=O)c3ccccn3)C(=O)C12)c1ccccc1 (stereo not shown) [11a] 102

----------
Task for the reader: assign each of the following molecules its reported melting point.

Query: melting point; subject: O=C(NC12C=CC(c3ccccc3)(C3C(=O)N(NC(=O)c4ccccn4)C(=O)C31)C1C(=O)N(NC(=O)c3ccccn3)C(=O)C12)c1ccccc1 (stereo not drawn) [11a] 263 to 265 °C

Requested read-out: melting point. Entry: COc1ccc(C2=CC3(NC(=O)c4ccccc4)C4C(=O)N(NC(=O)c5cccnc5)C(=O)C4C2(C)C2C(=O)N(NC(=O)c4cccnc4)C(=O)C23)cc1 (stereo not drawn) [11m] 365 to 369 °C (dec.)

Fill blank: measured melting point of the molecule COc1ccc(C2=CC3(NC(=O)c4ccccc4)C4C(=O)N(NC(=O)c5ccccn5)C(=O)C4C2(C)C2C(=O)N(NC(=O)c4ccccn4)C(=O)C23)cc1 (stereo not drawn) [11l] is ____. 298 to 303 °C (dec.)

Entry O=C(NN1C(=O)C2C(C1=O)C1(c3ccco3)C=CC2(NC(=O)c2ccccc2)C2C(=O)N(NC(=O)c3cccnc3)C(=O)C21)c1cccnc1 (stereo not drawn) [11j] : reported melting point = ? 272 to 276 °C

Give the measured melting point of O=C(NN1C(=O)C2C(C1=O)C1(c3ccco3)C=CC2(NC(=O)c2ccccc2)C2C(=O)N(NC(=O)c3ccncc3)C(=O)C21)c1ccncc1 (stereo not drawn) [11k] . 309 to 311 °C

Fill in the blank: the reported melting point of O=C(NN1C(=O)C2C(C1=O)C1(c3cccs3)C=CC2(NC(=O)c2ccccc2)C2C(=O)N(NC(=O)c3ccncc3)C(=O)C21)c1ccncc1 (stereo not drawn) [11h] is ____. 310 to 312 °C

Please look up its melting point: O=C(NN1C(=O)C2C(C1=O)C1(c3cccs3)C=CC2(NC(=O)c2ccccc2)C2C(=O)N(NC(=O)c3cccnc3)C(=O)C21)c1cccnc1 (stereo not drawn) [11g] 259 to 262 °C (dec.)

Which melting point reading was recorded for the molecule CC1=CC2(c3ccccc3)C3C(=O)N(NC(=O)c4ccccn4)C(=O)C3C1(NC(=O)c1ccccc1)C1C(=O)N(NC(=O)c3ccccn3)C(=O)C12 (stereo not drawn) [11d] ? 271 to 274 °C

I would be grateful if you could share the reported melting point for CC1=CC2(c3ccccc3)C3C(=O)N(NC(=O)c4cccnc4)C(=O)C3C1(NC(=O)c1ccccc1)C1C(=O)N(NC(=O)c3cccnc3)C(=O)C12 (stereo not drawn) [11e] . 345 to 347 °C (dec.)
